Listed next: entries and their corresponding self-cleavage.
B1: Twister Ribozyme (parent)
chain: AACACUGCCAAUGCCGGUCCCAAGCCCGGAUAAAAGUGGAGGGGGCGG

# Variants of: B1
# assay-name: self-cleavage, relative activity (ratio to wild type); higher = more cleavage; co-transcriptional

| mutation-code | self-cleavage |
| --- | --- |
| G42U G44A | 0.524 |
| G7U G29U | 0.0673 |
| A23C G28A | 0.225 |
| C19U A33G | 0.889 |
| C26U U37G | 0.118 |
| C9A A11C | 1.03 |
| G7C A23G | 0.13 |
| C26G G43A | 0.128 |
| G17C U31G | 0.139 |
| C15U A23G | 0.297 |
| U6A G45A | 0.911 |
| C8U A33G | 0.25 |
| G24C A30C | 0.0817 |
| G28C A34G | 0.491 |
| C3U C27G | 0.0437 |
| A1U A40U | 0.0682 |
| A1G G41U | 0.228 |
| A33U G39C | 0.0973 |
| G16A G45C | 0.595 |
| C19A C27A | 0.0712 |
| C27A G43C | 0.136 |
| G36A G48U | 0.809 |
| C25U G45C | 0.247 |
| A4U A10U | 0.0773 |
| C14A U31A | 0.796 |
| U6A C9U | 0.223 |
| A1G U31C | 0.409 |
| A10U U37C | 0.667 |
| C3G A22C | 0.481 |
| A2U A23G | 0.0976 |
| C5A G47U | 0.486 |
| G7U C9G | 0.0496 |
| C8G A30U | 0.409 |
| G24A C46A | 0.0898 |
| G17U C20U | 0.167 |
| C21A G48U | 0.154 |
| G29C A34C | 0.148 |
| C19U C21G | 0.107 |
| A2U C19A | 0.129 |
| A1U U37A | 0.0677 |
| A22C G42U | 0.198 |
| U12G G16C | 0.753 |
| G16A C19A | 0.241 |
| G16U G29U | 0.87 |
| G29U A32C | 0.836 |
| A2C U6A | 0.0688 |
